All values here come from PubChem BioAssay (NCI).

# Tested on: OVCAR-3 ovarian
# Assay details: NCI-60 one-dose screen, 48 h
# Condition: 10 µM unless noted
This is part of a sample that, as a whole, favours compounds with a hit. Of some 83,000 tested, about 20% had one in any assay. Active and inactive are the calls of the source. How the source made its calls: active means growth percent below 10; inactive means the rest.
Possible outcomes: active, inactive

>>> df
                                    molecule    tested_target     label
 0  CC(C)(C)c1cc(C(C)(C)C)cc(S(=O)(=O)Nc2cc3ccccc3cc2C(=O)NCCN)c1  OVCAR-3 ovarian  inactive
 1  COC(=O)c1ccc2oc(NC(=O)c3ccc(Nc4ccc([N+](=O)[O-])cc4C)c([N+](=O)[O-])c3)nc2c1  OVCAR-3 ovarian  inactive
 2  CCOC(=O)c1c(C)oc2ncnc(N3CCN(C(=O)COc4ccc(SC)cc4)CC3)c12  OVCAR-3 ovarian  inactive
 3  COc1ccc(-n2nc(C)c3c(Nc4ccc(NC(=O)Nc5cc(C(F)(F)F)ccc5F)cc4)ncnc32)cc1  OVCAR-3 ovarian  inactive
 4  O=C(/C=C/c1cccc([N+](=O)[O-])c1)c1ccc(O)c(CN2CCN(c3cc4c(cc3F)c(=O)c(C(=O)O)cn4C3CC3)CC2)c1  OVCAR-3 ovarian    active
 5  Nc1n[nH]c2ccc([C@@H]3Nc4ccc5[nH]ncc5c4[C@H]4C5C=CC(C5)[C@@H]34)cc12 (stereo partly drawn)  OVCAR-3 ovarian    active
 6  COc1ccc(S(=O)(=O)N2CCN(C)CC2)cc1NC(=O)c1[nH]c(C)c2c1CCCCC2=O  OVCAR-3 ovarian  inactive
 7  Cc1ccccc1COc1ccc(-c2ccnn2-c2ccc(Cl)cc2)cc1  OVCAR-3 ovarian  inactive
 8   COc1cc2nc(N3CCCC3)nc(NCC3CCCCC3)c2cc1OC  OVCAR-3 ovarian  inactive
 9     NC(=O)c1cc(Br)ccc1NC(=O)/C=C/c1ccccc1  OVCAR-3 ovarian    active
10  COc1cc(/C=C/c2cc(O)c3cc(C(C)=O)c(=O)oc3c2)cc2c1O[C@]1(C)CC[C@@H](O)C(C)(C)[C@H]1C2  OVCAR-3 ovarian  inactive
11  CCCc1cc(=O)n2c(C(=O)Nc3ccc(F)cc3)c(C(=O)Nc3ccc(F)cc3)sc2n1  OVCAR-3 ovarian  inactive
12  O=C1c2cccc3cccc(c23)C(=O)N1CCCCN1CCN(CCCCOc2ccc(-c3nc4ccc(N5CCOCC5)cc4[nH]3)cc2)CC1  OVCAR-3 ovarian  inactive
13  CCN1CCN(c2nc(NCCNc3ccnc4cc(Cl)ccc34)c3ccccc3n2)CC1  OVCAR-3 ovarian    active
14  CCOc1ccc(-n2nc(C(=O)Nc3ccccc3)nc2-c2cc(OC)c(OC)c(OC)c2)cc1  OVCAR-3 ovarian  inactive
15  Cc1cc(NS(=O)(=O)c2ccc(-c3cnc(C4CC4)o3)cc2)ccc1Cl  OVCAR-3 ovarian    active
16  O=C(CN(C(=O)Cn1c(=O)n2nnnc2c2ccccc21)c1ccccc1C(F)(F)F)Nc1ccc(C(F)(F)F)cc1  OVCAR-3 ovarian  inactive
17  CC1C(/C=N/Nc2ccccc2)C(C#N)(C#N)C1(C#N)C#N (stereo not drawn)  OVCAR-3 ovarian  inactive
